The reported measurements were obtained from PubChem BioAssay AID2165.

# targetOrSystem: Tyrosine-protein kinase JAK2 (Homo sapiens) (UniProt O60674)
# Sequence (O60674 whole entry, looked up, change not shown): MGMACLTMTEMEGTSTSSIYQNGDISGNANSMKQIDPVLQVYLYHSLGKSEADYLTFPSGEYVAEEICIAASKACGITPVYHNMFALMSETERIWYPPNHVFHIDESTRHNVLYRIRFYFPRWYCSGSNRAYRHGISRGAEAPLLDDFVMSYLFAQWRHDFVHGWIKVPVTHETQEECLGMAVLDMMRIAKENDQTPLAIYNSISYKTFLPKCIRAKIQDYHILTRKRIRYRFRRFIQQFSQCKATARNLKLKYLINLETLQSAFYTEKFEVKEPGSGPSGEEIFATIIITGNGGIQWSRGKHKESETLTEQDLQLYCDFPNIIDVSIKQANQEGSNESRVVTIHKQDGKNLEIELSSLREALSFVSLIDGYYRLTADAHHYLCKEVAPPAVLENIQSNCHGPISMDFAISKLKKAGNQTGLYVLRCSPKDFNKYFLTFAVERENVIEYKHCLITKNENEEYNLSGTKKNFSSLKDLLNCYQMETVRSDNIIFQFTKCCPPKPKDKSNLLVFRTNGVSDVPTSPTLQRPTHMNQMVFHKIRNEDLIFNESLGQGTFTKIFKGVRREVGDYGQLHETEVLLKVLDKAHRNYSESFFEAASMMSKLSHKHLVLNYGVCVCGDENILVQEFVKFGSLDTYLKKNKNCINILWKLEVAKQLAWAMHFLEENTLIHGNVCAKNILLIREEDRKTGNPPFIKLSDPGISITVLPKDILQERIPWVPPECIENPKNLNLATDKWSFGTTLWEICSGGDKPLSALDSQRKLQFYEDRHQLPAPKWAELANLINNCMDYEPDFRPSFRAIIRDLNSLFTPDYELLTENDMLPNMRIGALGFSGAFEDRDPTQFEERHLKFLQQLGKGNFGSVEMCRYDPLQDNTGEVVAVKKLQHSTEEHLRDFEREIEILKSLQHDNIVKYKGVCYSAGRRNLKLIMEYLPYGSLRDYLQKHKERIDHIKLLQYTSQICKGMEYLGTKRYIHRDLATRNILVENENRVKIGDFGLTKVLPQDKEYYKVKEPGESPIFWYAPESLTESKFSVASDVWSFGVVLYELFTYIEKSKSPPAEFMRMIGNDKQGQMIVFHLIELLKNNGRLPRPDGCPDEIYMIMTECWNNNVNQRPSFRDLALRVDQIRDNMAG
# runDescription: JAK2V617F kinase, IRF1 reporter and Ba/F3 cytotoxicity panel, late-stage follow-up, HEL and Ba/F3 cells (AID 2165)
# conditionContext: Ba/F3, irf1 reporter
Calls of active or inactive are those of the source. Cut-off read from the data, not from the text of the source: active = IC50 below about 9 µM; inactive = the rest.

| chemicalStructure | IC50 |
| --- | --- |
| CCCCCCN(C(=O)CCl)c1ccccc1 | 3.62 µM |
| COc1cc2ncnc(Nc3cccc(Br)c3)c2cc1OC | 1.31 µM |
| O=C(OCn1ncc(Cl)c(Cl)c1=O)c1ccc(F)cc1 | 1.94 µM |
| Oc1ccccc1OCCOc1ccccc1OCCOc1ccccc1O | 6.74 µM |
| N#C/C(=C\c1ccc(O)c(O)c1)C(=O)NCCCc1ccccc1 | 6.03 µM |
| Cc1[nH]c(=O)c(C(=O)/C=C/c2ccccc2)c2c1CCCC2 | > 40 µM (inactive) |
| O=C(O)c1[nH]c(=O)[nH]c(=O)c1F | > 40 µM (inactive) |

----------
# targetOrSystem: Tyrosine-protein kinase JAK2 (Homo sapiens) (UniProt O60674)
# runDescription: JAK2V617F kinase, IRF1 reporter and Ba/F3 cytotoxicity panel, late-stage follow-up, HEL and Ba/F3 cells (AID 2165)
# conditionContext: Ba/F3, irf1 reporter
pIC50: −log10 of the molar value.

| chemicalStructure | pIC50 |
| --- | --- |
| CCOc1ccc(Nc2nc(N)nc(CCl)n2)cc1 | 4.95 |
| Cc1nc([N+](=O)[O-])c(Br)n1CC(=O)c1ccc2ccccc2c1 | 5.29 |
| COc1ccc(-c2cnc3c(c2)CCC3(C#N)C#N)cc1 | 4.84 |
| Cc1cccc(N(Cc2ccccc2)C(=O)CCl)c1 | 5.95 |
| Cc1nc([N+](=O)[O-])c(Br)n1Cc1ccc(Cl)c(Cl)c1 | 5.58 |
| COc1ccc([N+](=O)[O-])c(S(=O)(=O)c2ccc(Cl)cc2)n1 | 6.40 |
| O=C(CSc1nnnn1-c1ccc(F)cc1)c1ccc(O)c(O)c1 | 4.91 |
| O=C(/C=C/c1ccc(O)c(O)c1)c1ccc(S(=O)(=O)N2CCCCCC2)cc1 | 5.63 |
| O=S(=O)(c1cccs1)N1CCN(c2ccc(O)cc2)CC1 | 5.15 |
| CC(C)(C)/C(O)=C/c1nc2cc(Cl)ccc2oc1=O | 5.38 |
| Cc1ccc(Nc2nc(N)nc(CCl)n2)cc1 | 4.90 |

----------
# targetOrSystem: UniProtKB O60674
# runDescription: JAK2V617F kinase, IRF1 reporter and Ba/F3 cytotoxicity panel, late-stage follow-up, HEL and Ba/F3 cells (AID 2165)
# conditionContext: Ba/F3, irf1 reporter

| compound | targetOrSystem | IC50 |
| --- | --- | --- |
| CCCC(=O)N(C1CC(C)C(C#N)(C#N)C1(C#N)C#N)N(C)C (stereo unspecified) | UniProtKB O60674 | 0.452 µM |
| c1ccc(CCNc2nc(-c3ccccn3)nc3ccccc23)cc1 | UniProtKB O60674 | 5.49 µM |
| Cc1[nH]c(=O)c(C(=O)C=Cc2ccc(I)cc2)c2c1CCCC2 | UniProtKB O60674 | 0.82 µM |
| COc1ccc(C2=Nn3c(nnc3C3CCCCC3)SC2)cc1OC | UniProtKB O60674 | 8.93 µM |
| O=C(/C(=N/N=C/c1ccc(O)c(O)c1)c1ccccc1)c1ccccc1 | UniProtKB O60674 | 6.61 µM |
| Cc1nn(Cc2ccc(Cl)cc2Cl)c(C)c1NC(=O)CCl | UniProtKB O60674 | 8.77 µM |
| Cc1cccc(Nc2nc(N)nc(CCl)n2)c1C | UniProtKB O60674 | 14.9 µM |
| CNC(=O)c1nnsc1S(=O)c1ccc(Cl)cc1 (stereo unspecified) | UniProtKB O60674 | 0.199 µM |
| COC(=O)/C=C/c1ccc(OC(=O)OC)c(OC(=O)OC)c1 | UniProtKB O60674 | 12.6 µM |
| COC1(OC)C(/C=C/c2ccc(Cl)cc2)C(C#N)(C#N)C1(OC)OC (stereo unspecified) | UniProtKB O60674 | 1.33 µM |
| Cc1cc2[nH]c3c(c[n+](C)c4ccccc34)c2cc1C | UniProtKB O60674 | 7.72 µM |

----------
# targetOrSystem: Tyrosine-protein kinase JAK2 (Homo sapiens)
# runDescription: JAK2V617F kinase, IRF1 reporter and Ba/F3 cytotoxicity panel, late-stage follow-up, HEL and Ba/F3 cells (AID 2165)
# conditionContext: Ba/F3, irf1 reporter
The source made the active and inactive calls. Rule as the data show it: active = IC50 below about 9 µM; inactive = the rest.
Possible outcomes: T for active, F for inactive

| chemicalStructure | category |
| --- | --- |
| Oc1ccc(/C=N/N2CCN(C3c4ccccc4-c4ccccc43)CC2)cc1O | T |
| COc1ccc(N2CCc3c(C)nc4c(OC)cc(OC)cc4c32)c(OC)c1 | T |
| Cc1nn2c(NCc3ccccn3)c3c(nc2c1-c1ccccc1)CCC3 | T |
| CCOc1cc2ncnc(Nc3cccc(Br)c3)c2cc1OCC | T |
| c1ccc2c(c1)CSc1sccc1C2=C1CCNCC1 | T |
| [O-][N+]1=c2ccc(Nc3ccccc3)cc2=NC12CCCCC2 | T |
| CCCc1nc2ccccc2c(=O)n1/N=C/c1ccc(O)c(O)c1 | T |
| Cc1[nH]c(=O)c(C(=O)C=Cc2ccccc2Cl)c2c1CCCC2 | T |
| CC(C)c1cc(C=C(C#N)C(=O)NCCCc2ccccc2)cc(C(C)C)c1O | T |
| COc1cc(C=C(C#N)C(N)=O)cc(CSc2ccccc2)c1O | F |
| COc1cc2ncc(-c3ccccc3)nc2cc1OC | F |

----------
# targetOrSystem: Tyrosine-protein kinase JAK2 (Homo sapiens) (UniProt O60674)
# runDescription: JAK2V617F kinase, IRF1 reporter and Ba/F3 cytotoxicity panel, late-stage follow-up, HEL and Ba/F3 cells (AID 2165)
# conditionContext: Ba/F3, irf1 reporter
Calls of active or inactive are those of the source. No stated cut-off is given here; in the data, active means IC50 below about 9 µM; inactive means the rest.
Classes used: active, inactive

| chemicalStructure | category |
| --- | --- |
| Cc1[nH]c2ccccc2c(=O)c1C(=O)/C=C/c1ccccc1 | inactive |
| Cc1[nH]c(=O)c(C(=O)C=Cc2ccc(Cl)cc2)c2c1CCCC2 | active |
| O=C(CCl)NC(=O)NC12CC3CC(CC(C3)C1)C2 | active |
| O=C(CCl)N=c1sccn1Cc1cccc2ccccc12 | active |
| O=C1C=C(Nc2ccc(O)cc2)C(=O)c2ccccc21 | active |
| COc1cc(/C=C(\C#N)C(N)=O)cc(CSc2nc3ccccc3s2)c1O | active |

----------
# targetOrSystem: UniProt:O60674
# runDescription: JAK2V617F kinase, IRF1 reporter and Ba/F3 cytotoxicity panel, late-stage follow-up, HEL and Ba/F3 cells (AID 2165)
# conditionContext: JAK2V617F
Calls of active or inactive are those of the source. No stated cut-off is given here; in the data, active means IC50 below about 9 µM; inactive means the rest.
Labels: active, inactive

| compound | category |
| --- | --- |
| Cc1cc(C)c(C(=O)/C=C/c2ccccc2F)c(=O)[nH]1 | active |
| Cc1[nH]c(=O)c(C(=O)C=Cc2ccc(Br)cc2)c2c1CCCC2 | active |
| COc1cc2ncnc(Nc3ccccc3)c2cc1OC | inactive |
| Cc1cc(C)cc(NC(=O)COc2cccc(C)c2)c1 | inactive |
| COc1cc2ncnc(Sc3ccc(Cl)cc3)c2cc1OC | inactive |
| COc1ccccc1OCC(=O)Nc1cc(C)ccc1O | active |
| O=C(NCCc1cccnc1)C1CCC(=O)N(CCc2cccc(F)c2)C1 (stereo unspecified) | inactive |
| N#CC(=Cc1ccc(O)c(O)c1)C(=S)NCc1ccccc1 | active |
| COc1cc(/C=C(\C#N)C(N)=O)cc(CSc2nc3ccccc3s2)c1O | active |
| N#C/C(=C\c1ccc(O)c(O)c1)C(=O)NCCc1ccccc1 | active |
| COc1cc2ncc(-c3ccccc3)nc2cc1OC | inactive |

----------
# targetOrSystem: Tyrosine-protein kinase JAK2 (Homo sapiens) (UniProt O60674)
# runDescription: JAK2V617F kinase, IRF1 reporter and Ba/F3 cytotoxicity panel, late-stage follow-up, HEL and Ba/F3 cells (AID 2165)
# conditionContext: Ba/F3, irf1 reporter
Active and inactive are the calls of the source. Cut-off read from the data, not from the text of the source: active = IC50 below about 9 µM; inactive = the rest.

| molecule | IC50 |
| --- | --- |
| Oc1ccc(Cl)cc1N=Cc1sc2ccccc2c1Cl | 3420 nM |
| Cc1ccccc1CS(=O)(=O)c1nnc([C@H](CC(C)C)NC(=O)OC(C)(C)C)o1 | 1960 nM |
| O=C(C=Cc1ccccc1F)c1c(-c2ccccc2)c2ccccc2[nH]c1=O | 390 nM |
| COc1ccccc1C(C[N+](=O)[O-])c1c(N)n(C)c(=O)n(C)c1=O (stereo unspecified) | 6820 nM |
| N#CC(=Cc1ccc(O)c(O)c1)C(=S)NCc1ccccc1 | 620 nM |
| COc1ccc(Nc2nc(N)nc(CCl)n2)cc1 | > 40000 nM (inactive) |
